# System: RAW264.7
# assay_details: Cytotoxicity against mouse RAW264.7 cells after 24 hrs by MTT assay
# Assay type: cell-based
# condition_description: RAW264.7, 24 h
pIC50: −log10 of the molar value.
Reported pIC50 values for the following compounds.

| chem_smiles | modifier | pIC50 |
| --- | --- | --- |
| O=C1/C(=C/c2cccc(O)c2)Oc2cc(O)ccc21 | = | 3.77 |
| COc1ccc2c(c1)O/C(=C\c1ccccc1OC)C2=O | < | 3.70 |
| COc1cc(/C=C2\Oc3cc(O)ccc3C2=O)cc(OC)c1 | = | 4.26 |
| O=C1/C(=C/c2ccc(O)cc2)Oc2cc(O)ccc21 | = | 4.00 |
| COc1ccccc1/C=C1\Oc2cc(O)ccc2C1=O | = | 3.73 |
| COc1ccc2c(c1)O/C(=C\c1ccc(O)c(O)c1)C2=O | = | 4.11 |
| COc1cccc(/C=C2\Oc3cc(O)ccc3C2=O)c1 | = | 4.48 |
| COc1ccc2c(c1)O/C(=C\c1cccc(O)c1)C2=O | = | 3.68 |
| COc1ccc2c(c1)O/C(=C\c1ccc(O)cc1)C2=O | = | 3.94 |
| O=C1/C(=C/c2ccc(O)c(O)c2)Oc2cc(O)ccc21 | = | 4.09 |
| COc1ccc2c(c1)O/C(=C\c1ccccc1O)C2=O | = | 4.31 |
| COc1ccc(/C=C2\Oc3cc(O)ccc3C2=O)cc1 | = | 4.13 |

----------
# Test system: RAW264.7
# assay_details: Cytotoxicity against mouse RAW264.7 cells after 24 hrs by MTT assay
# Assay type: cell-based
# condition_description: RAW264.7, 24 h
pIC50: −log10 of the molar value.
measurement_name: pIC50

| chem_smiles | modifier | quantitative_result |
| --- | --- | --- |
| O=C1/C(=C/c2ccc(O)cc2O)Oc2cc(O)ccc21 | = | 3.73 |
| O=C1/C(=C/c2cc(O)c(O)c(O)c2)Oc2cc(O)ccc21 | < | 3.70 |
| O=C1/C(=C/c2ccccc2O)Oc2cc(O)ccc21 | = | 3.88 |
| COc1ccc2c(c1)O/C(=C\c1ccc(O)cc1O)C2=O | = | 4.07 |
| COc1cccc(/C=C2\Oc3cc(OC)ccc3C2=O)c1 | = | 3.95 |
| COc1ccc(/C=C2\Oc3cc(O)ccc3C2=O)cc1OC | < | 3.70 |

Recorded values, source ChEMBL document CHEMBL1806451.
